ASSAY_METHOD_TEXT: soluble on expression in E. coli; label from the status in PepcDB or PDB records

{"columns": ["PRIMARY_SEQUENCE", "soluble on expression in E. coli"],
 "data": [
  ["MAHHHHHHMEKVITMREIITNTRKIKLHENFLEDCNLKDIFYNGLETVNCGYNDYVNMKTWLFVLSEKMFRTDYEELAYVACDALKVLLCNSKFLNVIIFKLLRKKLEKEILKIMGICCLTVASRMQQINESTCFKVILELSNLKDKLNEFNIRQIEMDVFVTLAHSGFCFEKIITPVNELNQIMKFLETYENFFDNNFNTFKSSSNLMLKIIYCMVPVFNMNIYNYSIVNYALRLFIQDNDKYEFIFEKLKQNYQDKEIIHISNFQNHMHNIINAFKNTSIFSAKDSILNNQLDVQLFEEINKKIEAYYEQKHKT", "not soluble"],
  ["MAHHHHHHMPCNVSCSTSPNSVTGEPRFIMDFSMNKVAKYFRLLGYDTLCSRDVPQANLIPTACAEGRILVTCSRPLARSVQLHNQRVRTMRLGIAKAMTGAAHHVIAYDSDGESIYSEDSEEVDVELRCLFTQQWCSGEFKRAMIELIQQAGVTYDLNRVFRRCVTCNELLVTMEKEEVRGRVVAKIYEIYDEFTECPTCRKVFWGFDGVFAINYKSFRSLNLLRSLCICAGAPVEEERTRLNRLRCFRSFPRIAKVLIFSYLEDVDLANMTVVFPALRDLAEEVQASRQTGEPVRKMQLRKH", "not soluble"],
  ["MRKLKITELNRISAEEFKQAEKLPLVVVLDDIRSLHNIGSVFRTSDAFRIECIYLCGITATPPHPEMHKTALGAEFTVDWKYVNNAVDAVDNLRKEGYIVYSIEQAEGSIMLDRLELDKTKKYAIVMGNEVKGVQQEVIDHSDGCIEIPQYGTKHSLNVSVTTGIVIWDLFKKLR", "not soluble"]
]}

----------
ASSAY_METHOD_TEXT: soluble on expression in E. coli; label from the status in PepcDB or PDB records
MEASURED_METRIC: soluble on expression in E. coli

{"columns": ["PRIMARY_SEQUENCE", "RESULT"],
 "data": [
  ["MGSDKIHHHHHHMRLILSQCLANLSVRFLMNRNSYNKIAHLWNVARNGFFGREREYLDAILSVAPIGSTILDLGCGTGRPMAEYIVSRGRCVLGVDQSEEMLRLARQKLPHEQWVLSSIESYEPVEGYHGALLWDSLFHIRRTEHELIVSKVVRGLPSGGRLMLTVGGSAHPEFTDFMYGEEFYYDSNTPQETETFLQRLSCRMVIGEYMNLPDGGRDKGRYAIVAEKI", "not soluble"],
  ["MKITHCKLKKEVQKEPLRSFVPEVTARSAADILGIHPDSAALFYRKIRTVANHRLALAADGVFEGPAGPGGSYFGGRRKGRRGRGAAGKAVVFGIPKRNGRAYTVAADNAEPETLPPAVKKKIMPDGIVYADSPGSRGKLDAGGFTRCRINRSKEFADRRNHINGIGDFWNQAKRALRKYNGIDRKPFPPFLRECEFRLNFGTPSRQLKILRDRCGILEHHHHHH", "not soluble"]
]}
